molecular target: Monoamine oxidase (Homo sapiens, UniProt P21397+P27338); test: Binding affinity towards monoaminooxidase Relative to MPTP; format: protein assay
property-label: Relative activity
I only need the number, thanks.

Solved entries (count: 5):
[
  {
    "molecule": "CC(C)N1CC=C(c2ccccc2)CC1",
    "property-label": "Relative activity",
    "value": 1
  },
  {
    "molecule": "CN1CC=C(c2ccccc2C(F)(F)F)CC1",
    "property-label": "Relative activity",
    "value": 3
  },
  {
    "molecule": "CC1CN(C)CC=C1c1ccccc1 (stereo not given)",
    "property-label": "Relative activity",
    "value": 2
  },
  {
    "molecule": "CCCN1CC=C(c2ccccc2)CC1",
    "property-label": "Relative activity",
    "value": 1
  },
  {
    "molecule": "C=CCN1CC=C(c2ccccc2)CC1",
    "property-label": "Relative activity",
    "value": 1
  }
]

QUERY: Entry under review: `CCN1CC=C(c2ccccc2)CC1` . Reported Relative activity?
RESULT: 2

QUERY: Entry under review: `CN1CC=C(c2ccccc2F)CC1` . Reported Relative activity?
RESULT: 3

QUERY: Entry under review: `CC1=C(c2ccccc2)CCN(C)C1` . Reported Relative activity?
RESULT: 2

QUERY: Entry under review: `N#CCCC(=O)N1CC=C(c2ccccc2)CC1` . Reported Relative activity?
RESULT: 1

QUERY: Entry under review: `CN1CC=C(C(C)(C)C)CC1` . Reported Relative activity?
RESULT: 2

QUERY: Entry under review: `C/C(=C\CN(C)C)c1ccccc1` . Reported Relative activity?
RESULT: 3

QUERY: Entry under review: `Cc1ccc(C2=CCN(C)CC2)cc1` . Reported Relative activity?
RESULT: 2

QUERY: Entry under review: `Cc1ccccc1C1=CCN(C)CC1` . Reported Relative activity?
RESULT: 3

QUERY: Entry under review: `Cc1cccc(C2=CCN(C)CC2)c1` . Reported Relative activity?
RESULT: 3

QUERY: Entry under review: `CN1CC=C(c2cccc(Cl)c2)CC1` . Reported Relative activity?
RESULT: 3
